Reported pIC50 is given for each of the following compounds.
- TESTED TARGET: PDGFRβ (Homo sapiens)
- Construct: expressed in transfected cells; host or cells: porcine aorta endothelial (PAE)-PDGFRβ cells
- Sequence (P09619 33-1106): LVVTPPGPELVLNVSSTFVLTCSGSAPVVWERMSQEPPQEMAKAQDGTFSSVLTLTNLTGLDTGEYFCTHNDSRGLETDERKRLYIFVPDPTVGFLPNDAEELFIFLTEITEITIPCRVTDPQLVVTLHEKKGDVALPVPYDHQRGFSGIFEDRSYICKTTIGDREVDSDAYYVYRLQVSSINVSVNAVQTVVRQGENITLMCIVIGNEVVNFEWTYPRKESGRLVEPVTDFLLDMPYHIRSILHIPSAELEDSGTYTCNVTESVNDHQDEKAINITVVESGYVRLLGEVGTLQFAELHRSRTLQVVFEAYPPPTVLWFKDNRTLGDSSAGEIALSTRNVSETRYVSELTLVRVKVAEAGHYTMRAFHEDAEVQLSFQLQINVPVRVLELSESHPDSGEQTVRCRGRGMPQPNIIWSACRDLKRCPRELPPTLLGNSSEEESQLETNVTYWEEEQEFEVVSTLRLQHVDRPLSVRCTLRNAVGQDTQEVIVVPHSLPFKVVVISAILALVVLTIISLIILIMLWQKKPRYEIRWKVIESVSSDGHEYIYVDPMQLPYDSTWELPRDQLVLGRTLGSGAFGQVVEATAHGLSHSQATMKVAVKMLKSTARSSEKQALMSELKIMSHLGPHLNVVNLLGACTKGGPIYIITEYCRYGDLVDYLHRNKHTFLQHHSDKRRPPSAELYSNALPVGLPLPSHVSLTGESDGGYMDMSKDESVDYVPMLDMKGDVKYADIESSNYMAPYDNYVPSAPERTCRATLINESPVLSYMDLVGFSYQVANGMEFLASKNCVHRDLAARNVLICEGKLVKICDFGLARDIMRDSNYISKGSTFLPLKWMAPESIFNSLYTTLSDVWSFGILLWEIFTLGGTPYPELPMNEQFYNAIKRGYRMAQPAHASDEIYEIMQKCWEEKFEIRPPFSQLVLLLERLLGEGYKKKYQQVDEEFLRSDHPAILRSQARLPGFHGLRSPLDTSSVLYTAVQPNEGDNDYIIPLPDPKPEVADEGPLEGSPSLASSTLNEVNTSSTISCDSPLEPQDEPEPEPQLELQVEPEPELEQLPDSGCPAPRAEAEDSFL
- ASSAY REMARKS: PAE-PDGFRβ phosphorylation in PAE-PDGFRB cells assay
- Assay type: cell-based
- CONDITIONS: library amides from Example 101 (R101), crude mixtures in DMSO; read-out: PAE PDGFR autophos IC50
pIC50: −log10 of the molar value.

>  <COMPOUND>
Cc1oc2cc(Oc3ccnc4ccsc34)ccc2c1C(=O)Nc1cc(C2CC2)nn1C

>  <VALUE REPORTED>
< 7.00

$$$$
>  <COMPOUND>
Cc1oc2cc(Oc3ccnc4ccsc34)ccc2c1C(=O)Nc1ccc2ncsc2c1

>  <VALUE REPORTED>
< 7.00

$$$$
>  <COMPOUND>
Cc1cc(C)c(O)c(NC(=O)c2c(C)oc3cc(Oc4ccnc5ccsc45)ccc23)c1

>  <VALUE REPORTED>
~7.00

$$$$
>  <COMPOUND>
Cc1oc2cc(Oc3ccnc4ccsc34)ccc2c1C(=O)Nc1cc(C(C)(C)C)[nH]n1

>  <VALUE REPORTED>
< 7.00

$$$$
>  <COMPOUND>
COC(=O)C1CN1C(=O)c1c(C)oc2cc(Oc3ccnc4ccsc34)ccc12 (stereo not drawn)

>  <VALUE REPORTED>
< 7.00

$$$$

Entry Cc1oc2cc(Oc3ccnc4ccsc34)ccc2c1C(=O)Nc1nncs1 , pIC50 reported as < 7.00

* * *

- Test system: Huvec
- ASSAY REMARKS: bFGF Huvec proliferation
- Assay type: cell-based, human
- CONDITIONS: Homo sapiens, HUVEC
Reported IC50 is given for each of the following compounds.
Give a bare numeral; the unit nM is implied.

>  <COMPOUND>
CCc1oc2cc(Oc3ccnc4cc(-c5nccn5C)sc34)ccc2c1C(=O)NC

>  <TESTED TARGET>
Huvec

>  <PROPERTY LABEL>
IC50

>  <VALUE REPORTED>
251

$$$$
>  <COMPOUND>
CNC(=O)c1c(C)n(C)c2cc(Oc3ccnc4cc(C(=O)N5CCC(CNC(=O)OC(C)(C)C)C5)sc34)ccc12 (stereo not drawn)

>  <TESTED TARGET>
Huvec

>  <PROPERTY LABEL>
IC50

>  <VALUE REPORTED>
6040

$$$$

We now examine a further compound.
Entry Cc1c(C(=O)Nc2ccccn2)c2ccc(Oc3ccnc4cc(-c5nccn5C)sc34)cc2n1C , IC50 reported as 4310

* * *

- TESTED TARGET: unphosphorylated VEGF-R2Δ50 (FLVK) (Homo sapiens, UniProt P35968, DEL940-989/E990V)
- Construct: VEGF-R2Δ50 contains residues 806–939 and 990–1171; made in house; host or cells: baculovirus/insect cell system
- Sequence (P35968 with tags, fused parts or gaps DEL940-989/E990V limits assumed): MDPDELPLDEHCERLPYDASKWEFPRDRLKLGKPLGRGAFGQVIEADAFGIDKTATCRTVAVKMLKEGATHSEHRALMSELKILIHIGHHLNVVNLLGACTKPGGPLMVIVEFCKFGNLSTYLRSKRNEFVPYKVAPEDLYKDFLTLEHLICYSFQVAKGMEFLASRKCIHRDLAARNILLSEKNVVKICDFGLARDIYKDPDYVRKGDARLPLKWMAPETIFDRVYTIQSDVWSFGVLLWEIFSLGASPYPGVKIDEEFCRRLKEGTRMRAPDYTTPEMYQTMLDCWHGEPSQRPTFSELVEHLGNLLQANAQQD
- ASSAY REMARKS: VEGF-R2 coupled spectrophotometric assay, unphosphorylated VEGF-R2Δ50 (FLVK)
- Type: biochemical
- CONDITIONS: 50 nM compound; unphosphorylated VEGF-R2Δ50; read-out: FLVK (% inh @ 50 nM)
PROPERTY LABEL: inhibition at 0.05 µM (%)

As a guide, the following entries are already answered.
>  <SMILES STR>
Cc1sc2cc(Oc3ccnc4cc(C(=O)N5CCC[C@H]5CO)sc34)ccc2c1C(=O)NC1CC1

>  <UNITS TEXT>
%

>  <VALUE REPORTED>
94

$$$$
>  <SMILES STR>
Cc1oc2cc(Oc3ccnc4ccsc34)ccc2c1C(=O)NCCc1ccc(S(N)(=O)=O)cc1

>  <UNITS TEXT>
%

>  <VALUE REPORTED>
61

$$$$
>  <SMILES STR>
CCCNC(=O)c1c(C)n(C)c2cc(Oc3ccnc4cc(-c5nccs5)sc34)ccc12

>  <UNITS TEXT>
%

>  <VALUE REPORTED>
81

$$$$
>  <SMILES STR>
CO[C@@H]1CCN(C(=O)c2cc3nccc(Oc4ccc5c(C(=O)NCCN6CCOCC6)c(C)oc5c4)c3s2)C1

>  <UNITS TEXT>
%

>  <VALUE REPORTED>
93

$$$$
>  <SMILES STR>
CNC(=O)c1c(C)sc2cc(Oc3ccnc4cc(-c5nc(CO)cs5)sc34)ccc12

>  <UNITS TEXT>
%

>  <VALUE REPORTED>
91

$$$$

a = CNC(=O)c1c(C)sc2cc(Oc3ccnc4cc(C(=O)N5CC[C@@H](O)C5)sc34)ccc12
b = CNC(=O)c1cn(C)c2cc(Oc3ccnc4cc(C(=O)N5CC[C@@H](O)C5)sc34)ccc12
c = Cc1oc2cc(Oc3ccnc4ccsc34)ccc2c1C(=O)NCc1ccncc1
Descending sort on inhibition at 0.05 µM required. Write the labels out in the order the request specifies.
a, b, c

a = Cc1oc2cc(Oc3ccnc4cc(-c5nccn5C)sc34)ccc2c1C(=O)NC(C)C
b = CNC(=O)c1c(C)n(C)c2cc(Oc3ccnc4cc(C(=O)N(C)C)sc34)ccc12
Response body: label of entry with the larger inhibition at 0.05 µM; valid values a , b . Select an item and report its label.
a
(a: 98%, b: 61%)
